Test: solvent given as SMILES
Settings: in OCCO
In plain terms, low solvation free energy, 298 K, meaning strictly below -2 kcal/mol, gives 1, and everything else gives 0.

Example cases with answers are listed next.
structure-notation: Cc1cccc(C)c1
class-label: 1
--
structure-notation: CC1CCCCC1
class-label: 0
--
structure-notation: C=CCCCCCC
class-label: 0

Prompt line: Strictly below -2 kcal/mol in solvation free energy, 298 K? CC(C)C
Response line: 0

Prompt line: Check CCCC too.
Response line: 0

Prompt line: Also C=CCCCC , if possible.
Response line: 0

----------
Test: solvent given as SMILES
Conditions: in CCCCCCCCC
Rule: solvation free energy, 298 K under -2 kcal/mol gives class 0, otherwise class 1.

structure-notation: O
class-label: class 1
//
structure-notation: FCC(F)(F)F
class-label: class 1
//
structure-notation: FC(F)(F)C(F)(F)Cl
class-label: class 1
//
structure-notation: CC(F)(F)Cl
class-label: class 1
//
structure-notation: CC(C)C
class-label: class 0
//
structure-notation: CCCl
class-label: class 0
//
structure-notation: CCC1CCCCC1
class-label: class 0
//
structure-notation: CCCC
class-label: class 0

Prompt line: Record CCC ; criterion: solvation free energy, 298 K no lower than -2 kcal/mol. Met?
Response line: class 1

Prompt line: Try this compound too: FC(F)F
Response line: class 1

Prompt line: Query FC(F)Cl next
Response line: class 1
